# Test Description: Oral bioavailability in rat
# Assay type: ADME, organism-based
# Experimental Conditions: in vivo
Recorded Metric: bioavailability (%)
One number for each entry, in %.

Prompt: Report bioavailability for CC(C)c1nc(N(C)c2ncnn2C)nc(-c2ccc(F)cc2)c1/C=C/[C@@H](O)C[C@@H](O)CC(=O)[O-].[Na+]
Response: 2.8

---

# Test Description: Oral bioavailability in guinea pig
# Assay type: ADME, organism-based, Cavia porcellus
# Experimental Conditions: in vivo
Recorded Metric: bioavailability (%)
Answers are plain numbers, in %.

Prompt: Report bioavailability for CC(C)c1nc(N(C)c2ncnn2C)nc(-c2ccc(F)cc2)c1/C=C/[C@@H](O)C[C@@H](O)CC(=O)[O-].[Na+]
Response: 41

---

# Organism: Cavia porcellus
# Test Description: Myotoxicity in guinea pig assessed as drug dose causing >[…] increase in plasma creatine kinase activity relative to control
# Type: organism-based
# Experimental Conditions: in vivo
Recorded Metric: Activity (mg/kg)
Numbers only, in mg/kg.

[[record]]
smiles_str = "CC(C)c1nc(N(C)c2nnnn2C)nc(-c2ccc(F)cc2)c1/C=C/[C@@H](O)C[C@@H](O)CC(=O)[O-].[Na+]"
u = "mg/kg"
value = 100


Prompt: Report Activity for COCc1c(C(C)C)nc(C(C)C)c(/C=C/[C@@H](O)C[C@@H](O)CC(=O)O)c1-c1ccc(F)cc1
Response: 0.6

---

# Test Description: Oral absorption in guinea pig
# Assay type: ADME, organism-based, Cavia porcellus
# Experimental Conditions: in vivo, read-out: Fabs
Recorded Metric: Fa (%)
One number for each entry, in %.

Prompt: Report Fa for CC(C)c1nc(N(C)c2ncnn2C)nc(-c2ccc(F)cc2)c1/C=C/[C@@H](O)C[C@@H](O)CC(=O)[O-].[Na+]
Response: 64

---

# Test Description: Oral bioavailability in monkey
# Format: ADME, organism-based, Macaca mulatta
# Experimental Conditions: rhesus monkey, in vivo
Recorded Metric: bioavailability (%)
Give bare numbers, in %.

Prompt: Report bioavailability for CC(C)c1nc(N(C)c2ncnn2C)nc(-c2ccc(F)cc2)c1/C=C/[C@@H](O)C[C@@H](O)CC(=O)[O-].[Na+]
Response: 1

---

# Test Description: Partition coefficient, log P by reverse phase HPLC method
# Format: physicochemical
# Experimental Conditions: octanol/water; read-out: logP
I'd appreciate it if you could supply logP values for the items below.
Answers are plain numbers.

Solved cases (2 shown):
[[record]]
smiles_str = "CC(C)c1nc(N(C)c2ccn(C)n2)nc(-c2ccc(F)cc2)c1/C=C/[C@@H](O)C[C@@H](O)CC(=O)O"
recorded_metric = "logP"
value = 3.18

[[record]]
smiles_str = "CC(C)c1nc(Nc2ccnn2C)nc(-c2ccc(F)cc2)c1/C=C/[C@@H](O)C[C@@H](O)CC(=O)O"
recorded_metric = "logP"
value = 2.2


List logP for every entry below, keeping the order given.
1. CC(C)c1nc(N(C)c2ccon2)nc(-c2ccc(F)cc2)c1/C=C/[C@@H](O)C[C@@H](O)CC(=O)O
2. CC(C)c1nc(N(C)S(C)(=O)=O)nc(-c2ccc(F)cc2)c1/C=C/[C@@H](O)C[C@@H](O)CC(=O)O

Response:
1: 3.5; 2: 2.4

---

I'd appreciate it if you could supply Activity values for the items below.
# System: Rattus norvegicus
# Test Description: Myotoxicity in po dosed weanling Sprague-Dawley rat assessed as drug dose causing >[…] increase in plasma creatine kinase activity relative to control
# Type: organism-based
# Experimental Conditions: in vivo
Answers are plain numbers, in mg/kg.

List Activity for every entry below, keeping the order given.
1. CC(C)c1nc(N(C)S(C)(=O)=O)nc(-c2ccc(F)cc2)c1/C=C/[C@@H](O)C[C@@H](O)CC(=O)O
2. CC(C)c1c(C(=O)Nc2ccccc2)c(-c2ccccc2)c(-c2ccc(F)cc2)n1CC[C@@H](O)C[C@@H](O)CC(=O)O
3. CCC(C)(C)C(=O)O[C@H]1C[C@@H](C)C=C2C=C[C@H](C)[C@H](CC[C@@H]3C[C@@H](O)CC(=O)O3)[C@H]21

Response:
100
100
50
